tested-on: SARS-CoV-2 M^pro (main protease) (Severe acute respiratory syndrome coronavirus 2)
measured-parameter: pKi
pKi here: minus log base 10 of the concentration, concentration in moles per litre.

Task item: I'm curious: which pKi was measured for O=c1c(O)c(-c2ccc(O)c(O)c2)oc2cc(O)ccc12 tested on SARS-CoV-2 M^pro (main protease) (Severe acute respiratory syndrome coronavirus 2)?
Reply: 7.38
